Quick reference: IC50 of the listed items.
# tested_system: horse serum butyrylcholinesterase (BChE) (Equus caballus, UniProt P81908)
# Construct: human recombinant AChE (hAChE), and horse serum BChE; purchased Sigma-Aldrich; host or cells: horse serum
# Sequence (P81908 whole entry): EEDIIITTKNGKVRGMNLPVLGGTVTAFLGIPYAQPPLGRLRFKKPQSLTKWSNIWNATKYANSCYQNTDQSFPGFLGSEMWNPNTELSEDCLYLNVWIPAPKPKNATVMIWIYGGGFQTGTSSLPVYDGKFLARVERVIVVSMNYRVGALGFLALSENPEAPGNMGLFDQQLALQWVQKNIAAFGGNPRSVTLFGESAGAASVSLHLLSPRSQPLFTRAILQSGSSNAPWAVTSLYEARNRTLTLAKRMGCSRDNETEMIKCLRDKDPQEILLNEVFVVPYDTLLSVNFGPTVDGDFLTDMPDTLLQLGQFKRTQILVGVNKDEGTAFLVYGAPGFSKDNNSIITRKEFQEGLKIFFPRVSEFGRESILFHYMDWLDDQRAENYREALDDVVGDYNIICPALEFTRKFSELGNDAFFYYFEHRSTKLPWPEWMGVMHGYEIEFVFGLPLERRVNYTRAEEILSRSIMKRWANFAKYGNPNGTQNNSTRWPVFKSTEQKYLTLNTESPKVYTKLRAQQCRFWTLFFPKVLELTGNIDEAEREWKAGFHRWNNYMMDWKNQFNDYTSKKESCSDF
# assay_remarks: Inhibition of horse serum butyrylcholinesterase (modified Ellman method)
# Assay type: biochemical
# condition_set: Ellman method, pH 7.4, 25 °C; 3 as acetate salt

Answered cases to consult:
Cc1nc2c(o1)C(=O)c1ccccc1C2=O [Compound 7, 2-methylnaphtho[2,3-d]oxazole-4,9-dione] : 145 µM
Cc1nc2c3n1CCN=C3c1ccccc1C2=O : > 400 µM
CC(=O)NC1=C2NCCN=C2c2ccccc2C1=O : > 400 µM

For the next question, use this compound.
Q) So what does the record say about IC50 for CN(C)C(=O)Oc1cccc([N+](C)(C)C)c1 [Neostigmine methylsulfate, reference compound] ?
A) 83.7 µM
